Where do these numbers come from? They come from patent US5723606A.

# target.or.test.system: arginine vasopressin V1 receptor (Rattus norvegicus)
# Construct: A rat liver membrane sample was prepared; from tissue; host or cells: rat liver membranes
# Sequence (P30560 whole entry): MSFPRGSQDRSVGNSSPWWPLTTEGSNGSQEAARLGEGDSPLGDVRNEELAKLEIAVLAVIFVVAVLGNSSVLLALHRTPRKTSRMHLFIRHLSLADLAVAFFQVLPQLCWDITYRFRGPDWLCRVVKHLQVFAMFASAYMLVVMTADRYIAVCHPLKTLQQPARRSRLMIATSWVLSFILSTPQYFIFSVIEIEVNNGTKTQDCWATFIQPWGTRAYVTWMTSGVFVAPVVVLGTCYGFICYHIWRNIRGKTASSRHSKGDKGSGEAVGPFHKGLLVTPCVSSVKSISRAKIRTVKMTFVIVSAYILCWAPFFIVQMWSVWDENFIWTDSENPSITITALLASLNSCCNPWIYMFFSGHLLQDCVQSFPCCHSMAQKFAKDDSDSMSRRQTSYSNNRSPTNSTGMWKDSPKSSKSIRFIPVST
# method.notes: V1 receptor binding assay
# test.settings: rat liver membrane, [3H]-Arg-vasopressin 2 nM; read-out: Binding activity on arginine vasopressin V1 receptor (pki) (converted)
Structures can show the parent of a compound that is named as a salt.
Param label: returns Fulfilled when Ki < 3 nM, returns Not fulfilled otherwise, including exact equality.

>>> print(df.to_string())
                                    compound          class
 0  Cc1nc2c([nH]1)-c1ccccc1N(C(=O)c1ccc(NC(=O)c3ccccc3OC(C)C)cc1)CC2 [Example 27, hydrochloride]  Not fulfilled
 1  NCCCCc1nc2c([nH]1)-c1ccccc1N(C(=O)c1ccc(NC(=O)c3ccccc3-c3ccccc3)cc1)CC2 [Example 37, HCl]      Fulfilled
 2  O=C(Nc1ccc(C(=O)N2CCc3sc(Cc4cccnc4)nc3-c3ccccc32)cc1)c1ccccc1-c1ccccc1 [Example 8, hydrochloride]  Not fulfilled
 3  Cc1nc(Cc2nc3c(s2)CCN(C(=O)c2ccc(NC(=O)c4ccccc4-c4ccccc4)cc2)c2ccccc2-3)c[nH]1  Not fulfilled
 4  Cc1nc2c(o1)-c1ccccc1N(C(=O)c1ccc(NC(=O)c3ccccc3-c3ccccc3)cc1)CC2  Not fulfilled
 5  CN(C)CCNc1nc2c(s1)CCN(C(=O)c1ccc(NC(=O)c3ccccc3-c3ccccc3)cc1)c1ccccc1-2 [Example 10, HCl]      Fulfilled
 6  Cc1nc2c([nH]1)-c1ccccc1N(C(=O)c1ccc(NC(=O)C3(c4ccccc4)CCCC3)cc1)CC2 [Example 38, hydrochloride]  Not fulfilled
 7  CCCc1nc2c([nH]1)-c1ccccc1N(C(=O)c1ccc(NC(=O)c3ccccc3-c3ccccc3)cc1)CC2.Cl [Example 21, hydrochloride]      Fulfilled
 8  CC(C)O.Cl.NCC(=O)Nc1nc2c(s1)CCN(C(=O)c1ccc(NC(=O)c3ccccc3-c3ccccc3)cc1)c1ccccc1-2 [Example 17, hydrochloride]      Fulfilled
 9  Cc1ccc(-c2ccccc2C(=O)Nc2ccc(C(=O)N3CCc4sc(NC(=N)N)nc4-c4ccccc43)cc2)cc1  Not fulfilled
10  Cc1nc2c([nH]1)-c1ccccc1N(C(=O)c1ccc(NC(=O)c3ccccc3C)cc1)CC2 [Example 24, hydrochloride]  Not fulfilled
11  CCc1nc2c([nH]1)-c1ccccc1N(C(=O)c1ccc(NC(=O)c3ccccc3-c3ccccc3)cc1)CC2.Cl [Example 20, hydrochloride]      Fulfilled
12  N=C(N)Nc1nc2c(s1)CCN(C(=O)c1ccc(NC(=O)c3ccccc3-c3ccccc3)cc1)c1ccccc1-2      Fulfilled
13  Nc1nc2c(s1)CCN(C(=O)c1ccc(NC(=O)c3ccccc3-c3ccccc3)cc1)c1ccccc1-2  Not fulfilled

====

# Test system: V2 receptor
# method.notes: V2 antagonism (water diuresis) in conscious rats (oral administration)
# Format: in vivo, rat
# test.settings: po, 3 mg/kg, 2 h
endpoint.label: amount of urine relative to the solvent-administered group

                                   compound  test_result
0  Cc1nc2c([nH]1)-c1ccccc1N(C(=O)c1ccc(NC(=O)c3ccccc3-c3ccccc3)cc1)CC2.Cl [Example 18(2)]  47-95 times
1  Cc1ccccc1C(=O)Nc1ccc(C(=O)N2CCCC(N(C)C)c3ccccc32)cc1 (centres unmarked) [(1), reference compound]     11 times
2  CCCc1nc2c([nH]1)-c1ccccc1N(C(=O)c1ccc(NC(=O)c3ccccc3-c3ccccc3)cc1)CC2.Cl [Example 21]  47-95 times
3  CCc1nc2c([nH]1)-c1ccccc1N(C(=O)c1ccc(NC(=O)c3ccccc3-c3ccccc3)cc1)CC2.Cl [Example 20]  47-95 times
4  Cl.O=C(Nc1ccc(C(=O)N2CCc3nc(C4CC4)[nH]c3-c3ccccc32)cc1)c1ccccc1-c1ccccc1 [Example 23]  47-95 times
